B1: TMEM59 peptide (residues 268–280), wild type [modified: long spacer (Tds) at the N-terminal end, used for immobilisation; long spacer (Tds) at the N-terminal end, used for immobilisation] [not stated] / GST-HA-ATG16L1(231–607) … (parent)
chain 1: PLPVEQDDDIEVIVDETSDHTEETSPVRAISRAATKRLSQPAGGLLDSITNIFGRRSVSSFPVPQDNVDTHPGSGKEVRVPATALCVFDAHDGEVNAVQFSPGSRLLATGGMDRRVKLWEVFGEKCEFKGSLSGSNAGITSIEFDSAGSYLLAASNDFASRIWTVDDYRLRHTLTGHSGKVLSAKFLLDNARIVSGSHDRTLKLWDLRSKVCIKTVFAGSSCNDIVCTEQCVMSGHFDKKIRFWDIRSESIVREMELLGKITALDLNPERTELLSCSRDDLLKVIDLRTNAIKQTFSAPGFKCGSDWTRVVFSPDGSYVAAGSAEGSLYIWSVLTGKVEKVLSKQHSSSINAVAWSPSGSHVVSVDKGCKAVLWAQY
chain 2: YVPSEKLSIYGDL

Variants of: B1
Test: peptide microarray
Details: with GST-HA-ATG16L1(231–607) [human]; ligand 800, 600, 400 nM; parent: 100
measure.name: percent of parent
Your reply should be a number followed by the unit it is expressed in.

chain 2 P3A | 168 % WT
chain 2 G11A | 18 % WT
chain 2 Y1F | 121 % WT
chain 2 S8I | 51 % WT
chain 2 S8V | 60 % WT
chain 2 S4Y | 188 % WT
chain 2 L13I | 177 % WT
chain 2 Y10N | 3 % WT
chain 2 Y1D | 12 % WT
chain 2 G11W | 165 % WT

Could you tell me which percent of parent is on file for chain 2 G11D ? 146 % WT

Could you tell me which percent of parent is on file for chain 2 G11Y ? 150 % WT

Could you tell me which percent of parent is on file for chain 2 E5A ? 95 % WT

Could you tell me which percent of parent is on file for chain 2 K6S ? 11 % WT

Could you tell me which percent of parent is on file for chain 2 S8H ? 115 % WT

FYI, the data here is from paper PMC7679444.
